- tgt: Voltage-gated potassium channel subunit beta-2 (Rattus norvegicus) (UniProt P62483)
- Sequence (P62483 whole entry, looked up): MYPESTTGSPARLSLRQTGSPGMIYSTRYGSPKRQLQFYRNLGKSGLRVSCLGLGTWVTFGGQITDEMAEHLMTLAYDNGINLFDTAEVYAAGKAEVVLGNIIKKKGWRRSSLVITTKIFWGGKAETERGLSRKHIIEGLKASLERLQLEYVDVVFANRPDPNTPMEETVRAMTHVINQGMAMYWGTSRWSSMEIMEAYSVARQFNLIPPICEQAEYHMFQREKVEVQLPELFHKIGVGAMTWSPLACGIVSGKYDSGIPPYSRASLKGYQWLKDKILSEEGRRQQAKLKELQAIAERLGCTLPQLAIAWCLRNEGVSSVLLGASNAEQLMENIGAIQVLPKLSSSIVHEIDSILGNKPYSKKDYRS
- test.name: KvBeta positive modulators, primary screen, biochemical, NADPH fluorescence (AID 623);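 note: fluorescence intensity change per second fitted from 20 to 320 s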
- test.settings: Recombinant KvBeta, NADPH fluorescence decrease slope, 10 min; at 10 µM; stronger effect = lower value
measured.attribute: NADPH fluorescence slope
Field format: numeric only.

Look over these answered cases.
COC(=O)C1=C(C)N=C2SC(C)C(=O)N2C1c1cccc(F)c1 (centres undefined) : -4.6e-05
COC(=O)c1[nH]c2cc(OC)ccc2c1NC(=O)CN1CCC(C(N)=O)CC1 : -0.000147
O=C(COc1ccccc1)Nc1ccc(-c2nnc(-c3ccco3)o2)cc1 : -2.1e-05
COc1cccc(-c2nc(NCCN3CCOCC3)c3ccccc3n2)c1O : -0.00024
CC1=CC=CN2CC(O)CN=C12 (centres undefined) : -1.5e-05
CC(C)(C)NCC(O)c1cc(O)cc(O)c1 (centres undefined) : -6.7e-05
COc1ccccc1N1CCN(CCCCOc2ccc(F)cc2)CC1 : -3.7e-05
COC(=O)CSC1=C(C#N)C(=O)NC2(CCCCC2)S1 : -4.7e-05
c1coc(CNc2ncnc3ccccc23)c1 : -0.000192
COc1cccc(C2C(C#N)=C(N)Oc3cc(C)[nH]c(=O)c32)c1OC (centres undefined) : -4.3e-05

Ask | For CN1CCC(=C2c3ccccc3CC(=O)c3sccc32)CC1 , what is its reported NADPH fluorescence slope?
Reply | -6.2e-05

Ask | Bench note: what NADPH fluorescence slope did CCCC(=O)N1c2ccccc2NC2=C(C(=O)CCC2)C1c1ccc(F)cc1 (centres undefined) show?
Reply | -1.5e-05
